All figures here come from patent US20240376189A1.

Known affinity determined by ELISA, huC5a of a selection of binders
Biological target: T1, human C5a (human, UniProt P01031 678-751, biotinylated in the U937/C5aR ligand blocking assay (site not stated))
T1 construct: also called human antigen; huC5a
T1 sequence: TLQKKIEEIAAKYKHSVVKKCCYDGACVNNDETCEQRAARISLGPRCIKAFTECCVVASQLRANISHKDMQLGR
Experiment: ELISA, antibody titrated on C5a-coated plate

# BINDER, READOUT UNITS, affinity determined by ELISA, huC5a
measured = [
    ("N97H (humanized anti-C5a IgG4 antibody) (antibody, V domains shown, Carries F29H and N97H in VH and Y96H in VL (Kabat)) VH: QVQLVQSGAEVKKPGSSVKVSCKASGYTHTDHIIHWMRQAPGQGLEWMGYIYPREGWTNYNENFKGRVTITADKSTSTAYMELSSLRSEDTAVYYCARERHLEYFDYWGQGTTVTVSS VL: DIVLTQSPASLAVSPGQRATITCKASQSVDYEGFNYMNWYQQKPGQPPKLLIYAASNLDSGVPARFSGSGSGTDFTLTINPVEAEDTANYYCQQSNEDPHTFGGGTKVEIKR", "nM", 0.408),
    ("16D10 (humanized anti-C5a IgG4 antibody) (antibody, V domains shown, also called WT (16D10); WT) VH: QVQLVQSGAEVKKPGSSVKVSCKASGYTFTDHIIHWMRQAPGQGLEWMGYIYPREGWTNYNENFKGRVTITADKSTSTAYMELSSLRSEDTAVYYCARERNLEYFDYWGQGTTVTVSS VL: DIVLTQSPASLAVSPGQRATITCKASQSVDYEGFNYMNWYQQKPGQPPKLLIYAASNLDSGVPARFSGSGSGTDFTLTINPVEAEDTANYYCQQSNEDPYTFGGGTKVEIKR", "nM", 0.269),
    ("E54H (humanized anti-C5a IgG4 antibody) (antibody, V domains shown, Carries F29H and E54H in VH and Y96H in VL (Kabat) relative to 16D10) VH: QVQLVQSGAEVKKPGSSVKVSCKASGYTHTDHIIHWMRQAPGQGLEWMGYIYPRHGWTNYNENFKGRVTITADKSTSTAYMELSSLRSEDTAVYYCARERNLEYFDYWGQGTTVTVSS VL: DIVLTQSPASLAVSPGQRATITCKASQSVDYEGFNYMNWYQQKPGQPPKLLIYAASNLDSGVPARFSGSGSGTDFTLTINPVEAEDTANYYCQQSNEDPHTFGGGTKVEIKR", "nM", 0.336),
    ("N92H (humanized anti-C5a IgG4 antibody) (antibody, V domains shown, Carries F29H in VH and N92H and Y96H in VL (Kabat); also called N92H antibody) VH: QVQLVQSGAEVKKPGSSVKVSCKASGYTHTDHIIHWMRQAPGQGLEWMGYIYPREGWTNYNENFKGRVTITADKSTSTAYMELSSLRSEDTAVYYCARERNLEYFDYWGQGTTVTVSS VL: DIVLTQSPASLAVSPGQRATITCKASQSVDYEGFNYMNWYQQKPGQPPKLLIYAASNLDSGVPARFSGSGSGTDFTLTINPVEAEDTANYYCQQSHEDPHTFGGGTKVEIKR", "nM", 0.468),
]
